# tested-system: CYP2C9 (Homo sapiens, UniProt P11712)
# Construct: Pooled human microsomes and selective CYP probe substrates were used; from tissue; host or cells: pooled human liver microsomes
# Sequence (P11712 whole entry): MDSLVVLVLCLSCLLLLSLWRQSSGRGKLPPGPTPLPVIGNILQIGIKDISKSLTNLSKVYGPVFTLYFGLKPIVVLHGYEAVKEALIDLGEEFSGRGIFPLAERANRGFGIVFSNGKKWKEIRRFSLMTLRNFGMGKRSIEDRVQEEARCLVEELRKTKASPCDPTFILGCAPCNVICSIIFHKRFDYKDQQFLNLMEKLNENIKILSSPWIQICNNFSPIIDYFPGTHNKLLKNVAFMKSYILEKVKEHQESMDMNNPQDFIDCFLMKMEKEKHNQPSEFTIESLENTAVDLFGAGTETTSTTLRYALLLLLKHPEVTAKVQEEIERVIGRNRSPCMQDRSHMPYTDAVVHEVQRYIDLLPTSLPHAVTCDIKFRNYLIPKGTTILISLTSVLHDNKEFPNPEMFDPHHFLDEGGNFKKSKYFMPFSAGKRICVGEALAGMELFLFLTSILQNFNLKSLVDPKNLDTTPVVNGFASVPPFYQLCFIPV
# experimental-details: Time-dependent inhibition of CYP2C9 in human liver microsomes
# Format: in vitro ADME
# measurement-setup: pooled human liver microsomes; CYP2C9, 25 μM, human liver microsomes, time zero; read-out: % Activity NADPH T0
Provide the reported activity at 0 min, 25 µM of each item.
Your answer is read as %, so omit the unit and give the number.

Q. Param readout = activity at 0 min, 25 µM; param system = CYP2C9 (Homo sapiens, UniProt P11712); param query = "Cc1cc(CN2C(=O)CN([C@H]3CC[C@H](C)CC3)C(=O)C23CN(C(N)=O)C3)ccc1F" ; response: value
A. 48

Q. Missing value: activity at 0 min, 25 µM, CYP2C9 (Homo sapiens, UniProt P11712), entry "C[C@H]1CC[C@H](N2CC(=O)N(Cc3ccc(F)c(F)c3)C3(CN(C(N)=O)C3)C2=O)CC1" . Fill in?
A. 62

Q. Please tell me: activity at 0 min, 25 µM of "CC(C)N1CC(=O)N(Cc2ccc(C(F)(F)F)cc2)C2(CN(c3cccnn3)C2)C1=O" , system CYP2C9 (Homo sapiens, UniProt P11712)?
A. 107

Q. GET /values?readout=activity at 0 min, 25 µM&system=CYP2C9 (Homo sapiens, UniProt P11712)&item= "CC(C)N1CC(=O)N(Cc2ccc(Cl)c(F)c2)C2(CN(c3cccnn3)C2)C1=O"
A. 104

Q. Under CYP2C9 (Homo sapiens, UniProt P11712): activity at 0 min, 25 µM value of "C[C@H]1CC[C@H](N2CC(=O)N(Cc3ccc(F)c(Cl)c3)C3(CN(C(N)=O)C3)C2=O)CC1" ?
A. 94

Q. Notebook: pull reported activity at 0 min, 25 µM for CYP2C9 (Homo sapiens, UniProt P11712), entry "C[C@H]1CC[C@H](N2CC(=O)N(Cc3ccc(Cl)cc3)C3(CN(C(N)=O)C3)C2=O)CC1"
A. 44
